Assay: chemical genetic growth profiling, strain panel (AID 1159580);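 also: tested at 20 µM; growth read once vehicle control cultures reached saturation at 30 °C; 1 = growth at the plate median or of vehicle wells; lower values mean less growth of the strain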
Conditions: S. cerevisiae deletion strains, growth OD, locus YDR137W, strain rgp1
Screen size: about 5,500 compounds; about 2,000 (36%) were called active. Another 18% or so got no clear call; they are omitted. Rule as the data show it: active = normalized growth mostly below about 0.91 (no sharp cut-off); inconclusive = no clear call, values can overlap the other calls; inactive = mostly above about 0.92. The list shows a part of the results.
Permitted responses: 1 for active, 0 for inactive

Q: Outcome logged for CC(C)(C)NCC(O)COc1cccc2c1CCCC2=O (stereo not drawn) in this assay:
A: 0

Q: # iterate: NC[C@H]1O[C@H](OC2[C@@H](N)C[C@@H](N)[C@H](O[C@H]3O[C@H](CO)[C@@H](O)[C@H](N)[C@H]3O)[C@H]2O)[C@H](O)[C@@H](O)[C@@H]1O (stereo partly drawn)
A: 0

Q: What do you get for CC(C)Nc1nc(Cl)nc(NC(C)C)n1 ?
A: 0

Q: Ok, now CC1(C)S[C@@H]2[C@H](NC(=O)[C@@H](N)c3ccc(O)cc3)C(=O)N2[C@H]1C(=O)O
A: 0

Q: Repeat with C[C@H]1[C@H](C)CC[C@]2(C(=O)O)CC[C@]3(C)C(=CCC4[C@@]5(C)C[C@@H](O)[C@H](O)[C@@](C)(CO)C5CC[C@]43C)[C@H]12 (stereo partly drawn)
A: 0

Q: Input CC[C@@]1(O)C(=O)OCc2c1cc1n(c2=O)Cc2cc3ccccc3nc2-1
A: 1

Q: Let us now turn to CC(=O)N1CCN(c2ccc(OCC3CO[C@](Cn4ccnc4)(c4ccc(Cl)cc4Cl)O3)cc2)CC1 (stereo partly drawn)
A: 1

Q: Next compound: CCC(=O)OCC(=O)C1(OC(=O)CC)C(C)CC2C3CCC4=CC(=O)C=CC4(C)C3(Cl)C(O)CC21C (stereo not drawn)
A: 0

Q: Proceed to C[C@@H]1CC[C@@]23CCC4(C)[C@@](C=CC5[C@@]6(C)CC[C@H](O)C(C)(C)C6CC[C@]54C)(OC2=O)C3[C@H]1C (stereo partly drawn)
A: 1

Q: And the next one, CC1(C)C(=O)CC[C@@]2(C)C1C[C@@H](O)[C@@]1(C)C3=CC(=O)O[C@@H](c4ccoc4)[C@]3(C)CCC21 (stereo partly drawn) ?
A: 0

Q: Next up: C[C@@H](CO)NC(=O)C1C=C2c3cccc4[nH]cc(c34)C[C@H]2N(C)C1 (stereo partly drawn)
A: 0

Q: Item: NS(=O)(=O)c1cc2c(cc1C(F)(F)F)NC(Cc1ccccc1)NS2(=O)=O (stereo not drawn)
A: 0

Q: Same lookup for CO[C@H]1[C@@H](O)[C@@H](C)O[C@H](O[C@H]2CCC3(C)C4CCC5(C)[C@@H](C6=CC(=O)OC6)CC[C@]5(O)[C@@H]4CC[C@]3(O)C2)[C@@H]1O (stereo partly drawn) , please.
A: 0

Q: // next record C[C@H]1O[C@H](O[C@H]2[C@H](O)[C@@H](O)[C@@H](O[C@H]3[C@H](O)[C@@H](O)C(O)O[C@@H]3CO)O[C@@H]2CO)[C@H](O)[C@@H](O)[C@@H]1N[C@H]1C=C(CO)[C@@H](O)[C@H](O)[C@H]1O (stereo partly drawn)
A: 0

Q: Would you kindly repeat that for COc1cc2c(cc1OC)-c1c(oc3cc(O)cc(O)c3c1=O)CO2 ?
A: 0

Q: Now the same for CC[C@@]1(O)C(=O)OCc2c1cc1n(c2=O)Cc2cc3cc(O)ccc3nc2-1
A: 0

Q: Then C[C@@H]1CC[C@@]23CCC4(C)[C@@](C=CC5[C@@]6(C)CCC(=O)C(C)(C)C6CC[C@]54C)(OC2=O)C3[C@H]1C (stereo partly drawn) ?
A: 0

Q: What would you report for Cc1c(OCC(F)(F)F)ccnc1CS(=O)c1nc2ccccc2[nH]1 (stereo not drawn) ?
A: 0

Q: // repeat for O=C1CC2(CCCC2)CC(=O)N1CCCCN1CCN(c2ncccn2)CC1 and report
A: 0

Q: # iterate: CC(C)=CC1C(CO)C1(C)C (stereo not drawn)
A: 0

Q: Likewise for COc1ccc(-c2cc(=O)c3c(O)cc(O)c(-c4cc(-c5cc(=O)c6c(O)cc(O)cc6o5)ccc4OC)c3o2)cc1 ?
A: 0

Q: Same read-out for COc1nc(NC(C)C)nc(NC(C)C)n1 ?
A: 0

Q: Could you do the same for CC1=C2C(O)C(=O)OC3CC4C(C)(C)C(=O)C=C[C@]4(C)C(CC1)[C@]23C (stereo partly drawn) , please?
A: 0

Q: Also COC1CC(O[C@H]2CC[C@]3(C=O)C4CC[C@]5(C)C(C6=CC(=O)OC6)CC[C@]5(O)C4CC[C@]3(O)C2)OC(C)C1O (stereo partly drawn) , if possible.
A: 0

Q: Repeat for the following compound: C[C@H]1[C@H](C)CC[C@]2(C(=O)O)CC[C@]3(C)C(=CCC4[C@@]5(C)C[C@@H](O)[C@H](O)[C@@](C)(CO)C5[C@H](O)C[C@]43C)[C@H]12 (stereo partly drawn)
A: 1

Q: Next: Nc1nc(/C(=C/CC(=O)O)C(=O)N[C@@H]2C(=O)N3C(C(=O)O)=CCS[C@H]23)cs1
A: 0

Q: Then CCc1ccc2c(O)c3c(cc2c1C(=O)OC)C(=O)c1c(O)ccc(O)c1C3=O ?
A: 0

Q: Next compound up: O=C(CCCN1CCC(O)(c2ccc(Cl)cc2)CC1)c1ccc(F)cc1
A: 0

Q: CC1(C)[C@@H]2CC[C@@]1(C)C(=O)C2 , same question.
A: 0

Q: Another: CCCc1nc(C)c2c(=O)[nH]c(-c3cc(S(=O)(=O)N4CCN(CC)CC4)ccc3OCC)nn12
A: 0

Q: Note, next up: CCCCCC(O)C1C(=O)OC(C)C(O)/C=C/C=C/C=C/C=C/C=C(\C)C(O)CC(O)CC(O)CC(O)CC(O)CC(O)CC1O (stereo not drawn)
A: 0

Q: Okay, and NC[C@H]1O[C@H](O[C@H]2[C@H](O)[C@@H](O[C@H]3O[C@H](CO)[C@@H](O)[C@H](N)[C@H]3O)[C@H](N)C[C@@H]2N)[C@H](N)[C@@H](O)[C@@H]1O ?
A: 0

Q: Same question for COc1cccc2c1CCC1=CC(=O)CC[C@@]12C please.
A: 0

All figures here come from PubChem BioAssay AID1159580.
